# Tested on: Glutamate NMDA receptor
# Method notes: Tested for the ability to inhibit [3H]MK-801 binding to NMDA receptor of rat cortical membranes in the presence of glutamate (1 uM)
// reported IC50 for each item listed
Quantity name: IC50 (µM)

{"Compound": "O=C(O)c1cc2c(Cl)cc(Cl)cc2[nH]1", "Quantity name": "IC50", "Reading unit": "µM", "Reading qualifier": "=", "Experimental result": 5.91}
{"Compound": "O=C(O)c1cc(O)c2c(Cl)cc(Cl)cc2n1", "Quantity name": "IC50", "Reading unit": "µM", "Reading qualifier": "=", "Experimental result": 0.86}
{"Compound": "O=C(O)Cc1c(C(=O)O)nc2cc(Cl)cc(Cl)c2c1O", "Quantity name": "IC50", "Reading unit": "µM", "Reading qualifier": "=", "Experimental result": 3.54}
{"Compound": "O=C(O)Cc1c(C(=O)O)nc2ccccc2c1O", "Quantity name": "IC50", "Reading unit": "µM", "Reading qualifier": "=", "Experimental result": 83.4}
{"Compound": "O=C(O)Cc1cc2ccccc2nc1C(=O)O", "Quantity name": "IC50", "Reading unit": "µM", "Reading qualifier": ">", "Experimental result": 100}
{"Compound": "O=C(O)CCc1c(C(=O)O)nc2cc(Cl)cc(Cl)c2c1O", "Quantity name": "IC50", "Reading unit": "µM", "Reading qualifier": "=", "Experimental result": 103}
{"Compound": "O=C(O)Cc1c(C(=O)O)[nH]c2cc(Cl)cc(Cl)c12", "Quantity name": "IC50", "Reading unit": "µM", "Reading qualifier": "=", "Experimental result": 3.33}
